These data points were gathered from ChEMBL document CHEMBL1146846.

Molecular target: Neuropilin-1 (Homo sapiens)
Test: Inhibition of VEGF165-NRP1 interaction by ELISA
Measured pIC50, listed per entry for reference.
Worth noting: pIC50 values are minus log10 of concentrations stated in mol/L.

CN(C)CCCOc1cccc2c(C#N)c(-c3ccccc3)c(NC3CCCCC3)n12 : 4.10

The record that follows has no pIC50 shown yet.
Challenge: Look up pIC50 for this molecule: "Cc1ccc(-c2c(C#N)c3cccc(Cl)n3c2NCCc2ccccc2)cc1"
Response given: 5.30

###

Target: Neuropilin-1 (Homo sapiens, UniProt O14786)
Sequence (O14786 whole entry): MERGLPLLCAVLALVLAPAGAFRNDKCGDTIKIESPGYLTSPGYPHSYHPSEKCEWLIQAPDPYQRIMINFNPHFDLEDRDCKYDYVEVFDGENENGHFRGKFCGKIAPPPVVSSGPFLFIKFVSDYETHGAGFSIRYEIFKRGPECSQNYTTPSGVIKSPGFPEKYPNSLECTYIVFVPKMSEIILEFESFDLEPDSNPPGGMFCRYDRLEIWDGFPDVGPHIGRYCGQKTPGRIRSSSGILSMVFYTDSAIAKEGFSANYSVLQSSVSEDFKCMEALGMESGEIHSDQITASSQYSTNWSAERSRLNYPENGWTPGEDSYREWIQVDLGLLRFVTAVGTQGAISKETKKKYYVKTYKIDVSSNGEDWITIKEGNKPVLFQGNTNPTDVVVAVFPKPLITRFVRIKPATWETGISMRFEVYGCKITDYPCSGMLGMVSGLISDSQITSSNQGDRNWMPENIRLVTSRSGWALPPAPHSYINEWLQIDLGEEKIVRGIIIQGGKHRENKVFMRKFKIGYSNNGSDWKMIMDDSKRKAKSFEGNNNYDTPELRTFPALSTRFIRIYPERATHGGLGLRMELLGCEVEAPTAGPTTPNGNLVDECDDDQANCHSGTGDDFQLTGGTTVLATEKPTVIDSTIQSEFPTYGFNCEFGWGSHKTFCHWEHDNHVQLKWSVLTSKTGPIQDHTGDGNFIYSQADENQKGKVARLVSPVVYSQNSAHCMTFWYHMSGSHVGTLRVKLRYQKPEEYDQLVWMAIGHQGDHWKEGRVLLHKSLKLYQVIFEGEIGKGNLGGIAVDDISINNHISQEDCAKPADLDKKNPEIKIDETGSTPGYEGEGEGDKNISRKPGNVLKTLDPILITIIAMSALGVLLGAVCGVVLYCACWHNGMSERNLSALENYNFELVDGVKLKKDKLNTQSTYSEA
Test: Inhibition of VEGF165-NRP1 interaction by ELISA
The source made the active and inactive calls. The rule behind the calls is not given here.
measured.attribute: Activity

Here's what some known entries look like.
N#Cc1c(-c2ccccc2)c(NC2CCCCC2)n2c(F)cccc12 : inactive
COc1ccc(CNc2c(-c3ccccc3)c(C#N)c3cccc(Cl)n23)c(OC)c1 : inactive
COC(=O)CSc1cccc2c(C#N)c(-c3ccccc3)c(NC3CCCCC3)n12 : inactive
N#Cc1c(-c2ccccc2)c(NC(=O)c2ccccc2)n2c(Cl)cccc12 : inactive

Challenge: What does the data say about its Activity? Entry: "N#Cc1c(-c2ccccc2)c(N)n2c(Cl)cccc12"
Response given: inactive

Challenge: Check "CSc1cccc2c(C#N)c(-c3ccccc3)c(NC3CCCCC3)n12" too.
Response given: inactive

Challenge: Consider next the molecule "N#Cc1c(-c2ccnc3ccccc23)c(NCCc2ccccc2)n2c(Cl)cccc12" in the same way.
Response given: inactive

Challenge: Also "N#Cc1c(-c2ccccc2)c(NC2CCCCC2)n2c(SCC(=O)O)cccc12" ?
Response given: inactive

Challenge: Let us now turn to "CCN(CC)CCNc1c(-c2ccccc2)c(C#N)c2cccc(Cl)n12"
Response given: inactive

Challenge: Next entry: "CC(=O)Nc1c(-c2ccccc2)c(C#N)c2cccc(Cl)n12"
Response given: inactive

Challenge: Likewise for "N#Cc1c(C2CCCCC2)c(NCCc2ccccc2)n2c(Cl)cccc12" ?
Response given: inactive

###

Molecular target: Neuropilin-1 (Homo sapiens)
Experiment: Inhibition of VEGF165-NRP1 interaction by ELISA
measured.attribute: IC50
Field note: include the unit after the figure.

Look over these answered cases.
N#Cc1c(C2CCNCC2)c(NCCc2ccccc2)n2c(Cl)cccc12 : 95 µM
N#Cc1c(-c2ccccc2F)c(NCCc2ccccc2)n2c(Cl)cccc12 : 3 µM
Cc1cccc(C)c1Nc1c(-c2ccccc2)c(C#N)c2cccc(Cl)n12 : 60 µM

Challenge: Look up IC50: "COc1cccc(-c2c(C#N)c3cccc(Cl)n3c2NCCc2ccccc2)c1"
Response given: 2 µM

Challenge: Same question, "N#Cc1c(-c2ccc(Cl)cc2)c(NCCc2ccccc2)n2c(Cl)cccc12" this time
Response given: 2 µM

###

Target: Neuropilin-1 (Homo sapiens)
Experiment: Inhibition of VEGF165-NRP1 interaction by ELISA
pIC50: −log10 of the molar value.
Classification field: enter rule met for pIC50 values not below 5, rule not met for values below it.

N#Cc1c(CCc2ccccc2)c(NCCc2ccccc2)n2c(Cl)cccc12 : rule met
N#Cc1c(-c2ccccc2)c(Nc2cccc(N)c2)n2c(Cl)cccc12 : rule not met
COc1ccccc1-c1c(C#N)c2cccc(Cl)n2c1NCCc1ccccc1 : rule met
N#Cc1c(-c2ccccn2)c(NCCc2ccccc2)n2c(Cl)cccc12 : rule met

Challenge: hey, is pIC50 for this one >= 5? "Cc1ccc(C)c(-c2c(C#N)c3cccc(Cl)n3c2NCCc2ccccc2)c1"
Response given: rule met

Challenge: Param item: "COc1ccc(-c2c(C#N)c3cccc(Cl)n3c2NCCc2ccccc2)cc1"
Response given: rule met

Challenge: Same lookup for "CN(C)CCNc1cccc2c(C#N)c(-c3ccccc3)c(NC3CCCCC3)n12" , please.
Response given: rule not met

Challenge: Repeat for the following molecule: "N#Cc1c(-c2cccnc2)c(NCCc2ccccc2)n2c(Cl)cccc12"
Response given: rule met
